Cited source for all entries: paper PMC11637481

Provide the reported Kd of each item.
Biological target: T1, SARS-CoV-2 receptor-binding domain (RBD), wild type (SARS-CoV-2, wild type (GenBank MN908947), UniProt P0DTC2)
T1 construct: also called WT
Assay: BLI
Details: both partners purified
Hi! Could you send only the number? It should be in nM, unit omitted.

Ask | Could you share which Kd value was measured for XGv018 (antibody, V domains shown) VH: QVQLVESGGGVVQPGRSLRLSCAASGFTFSTYGMHWVRQAPGKGLEWVAVILNDGSGKLYADSVKGRFTISRDNSKNTLYLQMSSLRAEDTAVYFCARDQGELVTYFDYWGQGTLVTVSS VL: DIQMTQSPSSLSASVGDRVTITCRASQSISRYLNWYQHKPGKAPKLLIYTTSNLQSGVPSRFSGSGSGTDFTLTISSLHPEDFATYYCQQSYNTPSWTFGQGTKVEIK ?
Reply | 0.21

Ask | Next: XGv026 (antibody, V domains shown) VH: EVQLVESGGGVIQPGGSLRLSCAASEIIVSSNYMNWVRQAPGKGLEWVSVIYPGGSSFYADSVKGRFTISRDNSKNTLYLQMNSLRVEDTAVYYCARDSPHRPGTIWGQGTLVVVSS VL: DIQMTQSPSSLSASVGDRVTITCRASQDINNYLNWYQQKPGKAPKLLIYDAFTLEAGVPSRFSGARFGTDFTFTISSLQPEDIATYYCHQCDNLPCTFGGGTKVEIK
Reply | 0.23

Ask | XGv016 (antibody, V domains shown) VH: QVQLVQSGTEVRKPGASVTVSCKASGYTFTTYHMHWVRRAPGQGLEWMGIIDPGTGGASYPQKFRGRVTLTRDTSTNTVYMELSSLRFQDTAIYYCARAEGSSWLGWFDPWGQGTLVTVSS VL: QSVLTQPPSASGTPGQRVSISCSGSSSNIGTNYVYWYQQLPGTAPKLLIYKNNQRPSGVPDRFSGSKSGTSASLAISGLRSEDEADYFCASWDNGLSGSGWVFGGGTKLTV , same question.
Reply | 0.16
